# Tested on: EMC-BAC-2
# method.summary: relative viability (nuclei count vs DMSO), 5 days (fraction); higher = more cells survive
# cond: first compound 0.08 µM
Threshold 0.8. relative viability below it: TRUE. relative viability at it or above: FALSE.

>  <molecule>
Cc1cnc(-c2cnc(NCCNc3ccc(C#N)cn3)nc2-c2ccc(Cl)cc2Cl)[nH]1 + Cc1nc(Nc2ncc(C(=O)Nc3c(C)cccc3Cl)s2)cc(N2CCN(CCO)CC2)n1 [Dasatinib] (partner 0.075 µM)

>  <system.name>
EMC-BAC-2

>  <assigned.category>
TRUE

$$$$
>  <molecule>
Cc1cnc(-c2cnc(NCCNc3ccc(C#N)cn3)nc2-c2ccc(Cl)cc2Cl)[nH]1 + C[C@@H](Oc1cc(-c2cnn(C3CCNCC3)c2)cnc1N)c1c(Cl)ccc(F)c1Cl [Crizotinib] (partner 1 µM)

>  <system.name>
EMC-BAC-2

>  <assigned.category>
FALSE

$$$$
>  <molecule>
Cc1cnc(-c2cnc(NCCNc3ccc(C#N)cn3)nc2-c2ccc(Cl)cc2Cl)[nH]1 + Cc1cc(Nc2cc(N3CCN(C)CC3)nc(Sc3ccc(NC(=O)C4CC4)cc3)n2)n[nH]1 [Tozasertib] (partner 0.1 µM)

>  <system.name>
EMC-BAC-2

>  <assigned.category>
TRUE

$$$$
>  <molecule>
O=c1[nH]c2ccccc2n1C1CCN(CCCC(c2ccc(F)cc2)c2ccc(F)cc2)CC1 [Pimozide] + CC(C)C[C@H](NC(=O)[C@H](Cc1ccccc1)NC(=O)c1cnccn1)B(O)O [Bortezomib] (partner 0.002 µM)

>  <system.name>
EMC-BAC-2

>  <assigned.category>
FALSE

$$$$
>  <molecule>
O=c1[nH]c2ccccc2n1C1CCN(CCCC(c2ccc(F)cc2)c2ccc(F)cc2)CC1 [Pimozide] + CS(=O)(=O)CCNCc1ccc(-c2ccc3ncnc(Nc4ccc(OCc5cccc(F)c5)c(Cl)c4)c3c2)o1 [Lapatinib] (partner 2 µM)

>  <system.name>
EMC-BAC-2

>  <assigned.category>
FALSE

$$$$

----------
# Tested on: EMC-BAC-2
# method.summary: relative viability (nuclei count vs DMSO), 5 days (fraction); higher = more cells survive
# cond: first compound 2.53 µM
# relative viability per record follows

>  <compound>
O=c1[nH]c2ccccc2n1C1CCN(CCCC(c2ccc(F)cc2)c2ccc(F)cc2)CC1 [Pimozide] + COc1cccc2cc(-c3nc([C@H]4CC[C@H](C(=O)O)CC4)n4ncnc(N)c34)[nH]c12 [OSI-027] (partner 0.5 µM)

>  <relative viability>
0.338

$$$$
>  <compound>
O=c1[nH]c2ccccc2n1C1CCN(CCCC(c2ccc(F)cc2)c2ccc(F)cc2)CC1 [Pimozide] + Nc1ncn([C@H]2C[C@H](O)[C@@H](CO)O2)c(=O)n1 [Decitabine] (partner 2 µM)

>  <relative viability>
0.953

$$$$
>  <compound>
O=c1[nH]c2ccccc2n1C1CCN(CCCC(c2ccc(F)cc2)c2ccc(F)cc2)CC1 [Pimozide] + CC(=O)Nc1cccc(-n2c(=O)n(C3CC3)c(=O)c3c(Nc4ccc(I)cc4F)n(C)c(=O)c(C)c32)c1 [Trametinib] (partner 0.02 µM)

>  <relative viability>
0.815

$$$$
>  <compound>
Cc1cnc(-c2cnc(NCCNc3ccc(C#N)cn3)nc2-c2ccc(Cl)cc2Cl)[nH]1 + NC(=O)Nc1cc(-c2cccc(F)c2)sc1C(=O)N[C@H]1CCCNC1 [AZD7762] (partner 0.2 µM)

>  <relative viability>
1.01

$$$$
